// values below are pKi; system is human carbonic anhydrase II (hCAII) (Homo sapiens)
Bear in mind: pKi is minus log10 of a mol/L concentration; give just that figure.

Study these solved cases before continuing.
ITEM_SMILES	pKi
NS(=O)(=O)c1ccc(/N=N/c2ccc([N+](=O)[O-])cc2)cc1	7.54
Cc1ccc(/N=N/c2ccc(S(N)(=O)=O)cc2)cc1	7.19
CCOC(=O)c1ccc(/N=N/c2ccc(S(N)(=O)=O)cc2)cc1	7.52
CCN(CC)c1ccc(/N=N/c2ccc(S(N)(=O)=O)cc2)cc1	7.60

So the reported pKi for NS(=O)(=O)c1ccc(/N=N/c2ccccc2)cc1 , on human carbonic anhydrase II (hCAII) (Homo sapiens), turned out to be 7.35

###

// values below are pIC50; system is human carbonic anhydrase II (hCAII) (Homo sapiens)
Bear in mind: pIC50 is minus log10 of a mol/L concentration; give just that figure.

ITEM_SMILES	METRIC_NAME	NUMBER
Cc1ccc(/N=N/c2ccc(S(N)(=O)=O)cc2)cc1	pIC50	6.44
NS(=O)(=O)c1ccc(/N=N/c2ccc([N+](=O)[O-])cc2)cc1	pIC50	6.80
CCOC(=O)c1ccc(/N=N/c2ccc(S(N)(=O)=O)cc2)cc1	pIC50	6.77
NS(=O)(=O)c1ccc(/N=N/c2ccccc2)cc1	pIC50	6.60
[N-]=[N+]=Nc1ccc(/N=N/c2ccc(S(N)(=O)=O)cc2)cc1	pIC50	6.59

--- query ---
So the reported pIC50 for CCN(CC)c1ccc(/N=N/c2ccc(S(N)(=O)=O)cc2)cc1 , on human carbonic anhydrase II (hCAII) (Homo sapiens), turned out to be 6.86
